Measured Emax values are reported for all entries that follow.
# tested_system: APOL1 G1 (Homo sapiens, UniProt O14791, I384M/S342G)
# assay_name: Trypanosoma brucei brucei Lysis Assay Using APOL1 Recombinant Protein (AlamarBlue viability readout)
# Type: cell-based
# condition: Trypanosome Assay; read-out: Trypanosome Assay Max Activity (%)
Give just the numeric value; % need not be written.

Answered cases to consult:
In [3]: df
Out[3]:
                                   compound  test_readout  value
0  C[C@H]1C[C@@]2(C[C@@H](c3cnn4c3OCCC4)N1)OCCc1cc(Cl)sc12 (racemic) [Compound 163]          Emax   79.5
1  C[C@H]1C[C@@]2(C[C@@H](c3cnn(CC(C)(CO)CO)c3)N1)OCCc1cc(Cl)sc12 (racemic) [Compound 103]          Emax    118

compound C[C@H]1C[C@@]2(C[C@@H](c3ccc[nH]c3=O)N1)OCCc1cc(Cl)sc12 (racemic) [Compound 121] , Emax observed: 97.5

====

# tested_system: APOL1 G1 (Homo sapiens, UniProt O14791, I384M/S342G)
# assay_name: Trypanosoma brucei brucei Lysis Assay Using APOL1 Recombinant Protein (AlamarBlue viability readout)
# Assay type: cell-based
# condition: Trypanosome Assay; IP50 = IC50 for cell proliferation; read-out: Trypanosome Assay IP50
# Excerpt: Trypanosoma brucei brucei is a blood stream parasite to which human, gorillas, and baboons are immune due to the presence of the APOL1 protein in their HDL particles. […] Briefly, the AlamarBlue active compound, resazurin, a blue, water soluble, non-toxic and cell permeable molecule, which can be followed by absorbance, is reduced by various metabolic pathways into resorufin, a red compound which can be followed by either absorbance or fluorescence. […]
Measured IC50 values are reported for all entries that follow.

Answered cases to consult:
                                   compound  test_readout           value
0  CC1CC2(CC(c3cc(F)cc(C#N)c3)N1)OCCc1cc(Cl)sc12 (centres unmarked)          IC50       < 0.05 µM
1  C[C@H]1CC2(C[C@@H](c3cn(C)nn3)N1)OCC(C)(C)c1sc(C(F)(F)F)cc12 (stereo in doubt)          IC50  0.05 to 0.5 µM
2  Cc1nccc([C@@H]2C[C@]3(C[C@H](C)N2)OCCc2cc(Cl)sc23)n1 (racemic)          IC50  0.05 to 0.5 µM
3  CC(=O)Nc1ccc(C2CC3(CC(C)N2)OCCc2cc(Cl)sc23)cn1 (centres unmarked)          IC50       < 0.05 µM

Read the next record carefully.
compound C[C@H]1C[C@@]2(C[C@@H](c3cccc(NS(C)(=O)=O)c3)N1)OCCc1cc(Cl)sc12 (racemic) , IC50 observed: 0.05 to 0.5 µM

====

Measured pIC50 values are reported for all entries that follow.
# tested_system: APOL1 (Homo sapiens)
# assay_name: Multi-Tox Assay (MultiTox-Fluor Multiplex Cytotoxicity Assay in tet-inducible APOL1 T-REx-HEK293 cells; Table 46 does not say which APOL1 variant G0/G1/G2)
# condition: IP50 = IC50 for cell proliferation, APOL1 variant not given
pIC50: −log10 of the molar value.

Answered cases to consult:
>>> df
                                   compound         value
0  C[C@H]1C[C@@]2(C[C@@H](c3ccc4c(c3)NC(=O)CO4)N1)OCCc1cc(Cl)sc12 (racemic)        > 7.30
1  COc1ccnc([C@@H]2C[C@]3(C[C@H](C)N2)OCCc2cc(Cl)sc23)n1 (racemic)  6.30 to 7.30
2  CC1CC2(CC(c3ccncc3)N1)OCCc1cc(Cl)sc12 (stereo not drawn)        > 7.30
3  C[C@H]1C[C@@]2(C[C@@H](c3cn(Cc4ccccn4)nn3)N1)OCC(F)(F)c1cc(Cl)sc12  6.30 to 7.30
4  C[C@H]1C[C@@]2(C[C@@H](c3cn(CC(F)F)nn3)N1)OC[C@@H](O)c1cc(Cl)sc12  6.30 to 7.30
5  Cc1n[nH]c2ncc([C@@H]3C[C@]4(C[C@H](C)N3)OCCc3cc(Cl)sc34)cc12 (racemic)        > 7.30

Considering Cc1ccccc1C(O)Cn1cc([C@@H]2C[C@]3(C[C@H](C)N2)OC[C@@H](O)c2cc(Cl)sc23)nn1 (stereo partly drawn) , its pIC50 with APOL1 (Homo sapiens) was recorded as 6.30 to 7.30

Considering C[C@H]1C[C@@]2(C[C@@H](c3cn(Cc4cccc(CO)c4)nn3)N1)OCC(F)(F)c1cc(Cl)sc12 , its pIC50 with APOL1 (Homo sapiens) was recorded as 6.30 to 7.30

Considering CC1CC2(CC(c3cccc(C#N)c3)N1)OCCc1cc(Cl)sc12 (stereo not drawn) , its pIC50 with APOL1 (Homo sapiens) was recorded as > 7.30

Considering COc1ccccc1-c1ncc([C@@H]2C[C@]3(C[C@H](C)N2)OCCc2cc(Cl)sc23)cn1 (racemic) , its pIC50 with APOL1 (Homo sapiens) was recorded as > 7.30

Considering Cc1nocc1[C@@H]1C[C@]2(C[C@H](C)N1)OCCc1cc(Cl)sc12 (racemic) , its pIC50 with APOL1 (Homo sapiens) was recorded as 6.30 to 7.30

Considering C[C@H]1C[C@@]2(C[C@@H](c3ccc(O)c(F)c3)N1)OCCc1cc(Cl)sc12 (stereo in doubt) , its pIC50 with APOL1 (Homo sapiens) was recorded as > 7.30

Considering C[C@H]1C[C@@]2(C[C@@H](c3cnn4ccccc34)N1)OCCc1cc(Cl)sc12 (racemic) , its pIC50 with APOL1 (Homo sapiens) was recorded as > 7.30

Considering C[C@H]1C[C@@]2(C[C@@H](c3ccn(C)n3)N1)OCCc1cc(Cl)sc12 (racemic) , its pIC50 with APOL1 (Homo sapiens) was recorded as > 7.30

Considering CCc1cc2c(s1)CCO[C@@]21C[C@@H](c2cnn(CCS(C)(=O)=O)c2)N[C@@H](C)C1 (stereo in doubt) , its pIC50 with APOL1 (Homo sapiens) was recorded as 6.30 to 7.30

Considering CNC(=O)c1ccc(C2CC3(CC(C)N2)OCCc2cc(Cl)sc23)cc1 (stereo not drawn) , its pIC50 with APOL1 (Homo sapiens) was recorded as > 7.30

Considering COc1cccc(C2CC3(CC(C)N2)OCCc2cc(Cl)sc23)n1 (mixture of isomers) , its pIC50 with APOL1 (Homo sapiens) was recorded as 6.30 to 7.30

Considering C[C@@H]1CC2(C[C@H](C)N1)OCCc1cc(C(F)(F)F)sc12 (single isomer, unassigned) , its pIC50 with APOL1 (Homo sapiens) was recorded as > 7.30

====

# tested_system: APOL1 (Homo sapiens, UniProt O14791)
# Sequence (O14791 whole entry S342G/I384M, form open): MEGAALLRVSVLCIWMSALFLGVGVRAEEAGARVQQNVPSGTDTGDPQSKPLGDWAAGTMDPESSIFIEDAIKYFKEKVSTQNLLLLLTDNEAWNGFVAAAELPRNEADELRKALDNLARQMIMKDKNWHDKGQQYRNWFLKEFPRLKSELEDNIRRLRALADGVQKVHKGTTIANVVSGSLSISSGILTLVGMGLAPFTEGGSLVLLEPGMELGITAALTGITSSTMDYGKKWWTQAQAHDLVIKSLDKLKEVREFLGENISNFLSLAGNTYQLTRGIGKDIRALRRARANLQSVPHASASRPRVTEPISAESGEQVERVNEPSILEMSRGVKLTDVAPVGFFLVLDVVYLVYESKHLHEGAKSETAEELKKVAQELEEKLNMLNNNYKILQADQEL
# assay_name: Multi-Tox Assay (MultiTox-Fluor Multiplex Cytotoxicity Assay in tet-inducible APOL1 T-REx-HEK293 cells; Table 46 does not say which APOL1 variant G0/G1/G2)
# Format: cell-based
# condition: APOL1 variant not given
test_readout: Multi-Tox Assay Max Activity (%)
Give just the numeric value; % need not be written.

Answered cases to consult:
>>> df
                                   compound                      test_readout  unit_of_measure  value
0  C[C@H]1C[C@@]2(C[C@@H](c3cc(C(F)(F)F)[nH]n3)N1)OCCc1cc(Cl)sc12 (stereo in doubt)  Multi-Tox Assay Max Activity (%)                %   99.7
1  CCn1cc(Cn2cc([C@@H]3C[C@]4(C[C@H](C)N3)OC[C@@H](O)c3cc(Cl)sc34)nn2)cn1  Multi-Tox Assay Max Activity (%)                %   99.0
2  CCOc1ccc([C@@H]2C[C@]3(C[C@H](C)N2)OCCc2cc(Cl)sc23)cc1O (racemic)  Multi-Tox Assay Max Activity (%)                %   99.7
3  C[C@H]1C[C@@]2(C[C@@H](c3cn(C)nn3)N1)OCCc1sc(C(F)(F)F)cc12  Multi-Tox Assay Max Activity (%)                %  100.0
4  Cc1nn(C)cc1[C@@H]1C[C@]2(C[C@H](C)N1)OCCc1cc(Cl)sc12 (racemic)  Multi-Tox Assay Max Activity (%)                %   99.0

compound C[C@H]1C[C@@]2(C[C@@H](c3cnc(C4CCOCC4)o3)N1)OCCc1cc(Cl)sc12 (racemic) , Multi-Tox Assay Max Activity (%) observed: 99.7

compound CCc1c[nH]c([C@@H]2C[C@]3(C[C@H](C)N2)OCCc2cc(Cl)sc23)n1 (racemic) , Multi-Tox Assay Max Activity (%) observed: 96.0

compound Cc1ncc(Cn2cc([C@@H]3C[C@]4(C[C@H](C)N3)OCC(F)(F)c3cc(Cl)sc34)nn2)cn1 , Multi-Tox Assay Max Activity (%) observed: 99.0

compound CC1CC2(CC(c3cn(C)cn3)N1)OCCc1cc(Cl)sc12 (racemic) , Multi-Tox Assay Max Activity (%) observed: 99.7

compound CC(C)N1CC(Cn2cc([C@@H]3C[C@]4(C[C@H](C)N3)OCC(F)(F)c3cc(Cl)sc34)nn2)CC1=O (stereo partly drawn) , Multi-Tox Assay Max Activity (%) observed: 98.0

compound Cc1nc2c([C@@H]3C[C@]4(C[C@H](C)N3)OCCc3cc(Cl)sc34)cccc2o1 (racemic) , Multi-Tox Assay Max Activity (%) observed: 89.7

compound C[C@H]1C[C@@]2(C[C@@H](c3cnccn3)N1)OCCc1cc(Cl)sc12 (racemic) , Multi-Tox Assay Max Activity (%) observed: 100.0

compound C[C@H]1C[C@@]2(C[C@@H](c3cn(CCCS(C)(=O)=O)nn3)N1)OCC(F)(F)c1cc(Cl)sc12 , Multi-Tox Assay Max Activity (%) observed: 99.0

compound C[C@H]1C[C@@]2(C[C@@H](c3cn(Cc4cnc5cnccn45)nn3)N1)OC[C@@H](O)c1cc(Cl)sc12 , Multi-Tox Assay Max Activity (%) observed: 98.0

compound C[C@H]1C[C@@]2(C[C@@H](c3cn(CCc4ccncn4)nn3)N1)OC[C@@H](O)c1cc(Cl)sc12 , Multi-Tox Assay Max Activity (%) observed: 99.0

compound Cc1ncoc1[C@@H]1C[C@]2(C[C@H](C)N1)OCCc1cc(Cl)sc12 (racemic) , Multi-Tox Assay Max Activity (%) observed: 96.3

compound C[C@H]1C[C@@]2(C[C@@H](c3cn(CCC#N)nn3)N1)OC[C@@H](O)c1cc(Cl)sc12 , Multi-Tox Assay Max Activity (%) observed: 98.0

compound C[C@H]1C[C@@]2(C[C@@H](c3cn(CCOc4ccccc4F)nn3)N1)OC[C@@H](O)c1cc(Cl)sc12 , Multi-Tox Assay Max Activity (%) observed: 99.0
